Item-by-item account of inhibition rate, Results (%) LLC
Test system: LLC mouse Lewis lung carcinoma
Test: In vitro inhibition rate to tumor cells (MTT), LLC
Format: cell-based
Conditions: 50 μg/ml; Table 2 (repeated screening)
Could you give me the number in %? Just the number is fine.

Sample records with inhibition rate, Results (%) LLC:
CC(C)C1CC23OC1(O)CC(=CO[N+](=O)[O-])C2CCC3C (stereo not drawn) [Compound 19, Curcumol mononitrate]	−16.00
CCCCNC1(C)CC2(OC)OC3(CC2C(C)C)C(C)CCC13.Cl (stereo not drawn)	−17.56

Endpoint output: inhibition rate, Results (%) LLC of CC(C)C1CC23OC1(O)CC(C)(N1CCNCC1)C2CCC3C.Cl (stereo not drawn) . Value? 17.565

Endpoint output: inhibition rate, Results (%) LLC of C=C1CC2(OC(C)=O)OC3(CC2C(C)C)C(C)CCC13 (stereo not drawn) [Compound 1, Curcumol acetate] . Value? 1.30

Endpoint output: inhibition rate, Results (%) LLC of CCCCNC1(C)CC2(OC)OC3(CC2C(C)C)C(C)CCC13 (stereo not drawn) . Value? 1.32

Endpoint output: inhibition rate, Results (%) LLC of C=CC(=O)OC12CC(=C)C3CCC(C)C3(CC1C(C)C)O2 (stereo not drawn) [Compound 22, Curcumol acrylate] . Value? −6.41

Endpoint output: inhibition rate, Results (%) LLC of CC(C)C1CC23OC1(O)CC(Br)(CBr)C2CCC3C (stereo not drawn) [Compound 30, Curcumol dibromide] . Value? −4.65

Endpoint output: inhibition rate, Results (%) LLC of CC(=O)OC12CC(=O)C3CCC(C)C3(CC1C(C)C)O2 (stereo not drawn) [Compound 49, Curzerenone acetate] . Value? 0.12

Endpoint output: inhibition rate, Results (%) LLC of CCOC12CC(=CO[N+](=O)[O-])C3CCC(C)C3(CC1C(C)C)O2 (stereo not drawn) [Compound 29, Curcumol ethyl ether nitrate] . Value? −1.95

Reference source for all entries: patent US7700584B2
